Target: mutant CFTR (Homo sapiens, UniProt P13569, DEL508-508)
Sequence (P13569 with tags, fused parts or gaps DEL508-508): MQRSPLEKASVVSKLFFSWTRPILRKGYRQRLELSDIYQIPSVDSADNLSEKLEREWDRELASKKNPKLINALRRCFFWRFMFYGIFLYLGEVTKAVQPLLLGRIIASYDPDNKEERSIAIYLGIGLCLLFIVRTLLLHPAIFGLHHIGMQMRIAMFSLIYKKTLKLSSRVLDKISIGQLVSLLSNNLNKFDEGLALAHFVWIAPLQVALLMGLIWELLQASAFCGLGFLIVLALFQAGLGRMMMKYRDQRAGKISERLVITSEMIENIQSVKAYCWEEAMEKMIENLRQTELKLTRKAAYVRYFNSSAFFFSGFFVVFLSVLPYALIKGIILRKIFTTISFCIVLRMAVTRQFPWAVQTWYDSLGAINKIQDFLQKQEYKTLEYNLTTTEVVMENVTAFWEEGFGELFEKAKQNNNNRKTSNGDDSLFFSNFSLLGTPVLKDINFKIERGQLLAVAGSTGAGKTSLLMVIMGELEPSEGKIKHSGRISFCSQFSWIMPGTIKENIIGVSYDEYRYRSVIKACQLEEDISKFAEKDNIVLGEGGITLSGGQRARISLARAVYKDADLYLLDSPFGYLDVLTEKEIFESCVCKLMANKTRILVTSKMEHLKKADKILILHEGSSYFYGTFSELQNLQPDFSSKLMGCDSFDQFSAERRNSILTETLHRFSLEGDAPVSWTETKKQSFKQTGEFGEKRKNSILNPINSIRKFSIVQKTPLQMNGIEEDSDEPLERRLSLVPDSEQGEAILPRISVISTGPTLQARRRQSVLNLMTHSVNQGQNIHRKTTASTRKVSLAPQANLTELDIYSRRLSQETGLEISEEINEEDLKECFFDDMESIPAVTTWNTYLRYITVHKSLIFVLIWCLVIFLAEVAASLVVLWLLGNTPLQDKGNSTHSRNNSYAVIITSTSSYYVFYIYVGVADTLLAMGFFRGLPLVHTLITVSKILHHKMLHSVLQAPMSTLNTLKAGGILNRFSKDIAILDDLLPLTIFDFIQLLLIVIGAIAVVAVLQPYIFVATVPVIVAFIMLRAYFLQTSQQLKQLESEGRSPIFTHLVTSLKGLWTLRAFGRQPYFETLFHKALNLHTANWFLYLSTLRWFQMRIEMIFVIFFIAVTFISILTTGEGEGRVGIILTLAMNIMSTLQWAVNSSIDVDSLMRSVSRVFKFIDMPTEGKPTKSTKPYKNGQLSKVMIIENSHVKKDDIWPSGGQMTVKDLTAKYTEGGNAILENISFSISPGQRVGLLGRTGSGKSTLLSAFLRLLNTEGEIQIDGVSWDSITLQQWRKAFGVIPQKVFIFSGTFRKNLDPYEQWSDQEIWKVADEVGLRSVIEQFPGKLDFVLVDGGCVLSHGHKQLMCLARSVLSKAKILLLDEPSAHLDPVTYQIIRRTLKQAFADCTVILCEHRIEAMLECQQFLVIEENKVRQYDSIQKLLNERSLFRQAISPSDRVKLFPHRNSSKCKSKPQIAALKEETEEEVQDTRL
Test: Fluorescence (HS-YFP) assay for CFTR activity, corrector assay
Details: CFBE41o- and FRT cells with stable expression of mutant CFTR, 24 h compound treatment
Experimental: Fluorescence Assay for CFTR Activity Mutant CFTR activity was determined with the functional assay based on the halide-sensitive yellow fluorescent protein, HS-YFP (Galietta et al., FEBS Lett 499: 220-224, 2001). […] For determination of potentiator activity on G551D-CFTR or G1349D-CFTR, cells were directly stimulated with forskolin plus test compound without previous incubation at low temperature. […] Data were normalized to the initial background-subtracted fluorescence. […]
pEC50: −log10 of the molar value.
Measured property: pEC50

{"Compound": "Cc1nn(-c2cccc(C(=O)Nc3ccc4c(c3)CCO4)c2)c(C)c1Cl [Int-052]", "Result value": "< 5.70"}
{"Compound": "CC(C)Oc1cc(C(F)(F)F)nn1-c1cccc(C(=O)N(C)c2ccc3c(c2)OCO3)c1 [compound 131]", "Result value": "> 6.00"}
{"Compound": "CN(C(=O)c1cccc(-n2nc(C(F)(F)F)c(Cl)c2OCc2ccccc2)c1)c1ccc2c(c1)OCO2 [compound 134]", "Result value": "> 6.00"}
{"Compound": "CCOC(=O)c1c(Cl)c(C)nn1-c1cccc(C(=O)N(C)c2ccc3c(c2)OCO3)c1 [compound 075]", "Result value": "> 6.00"}
{"Compound": "CN(C(=O)c1cccc(-n2nc(C(F)(F)F)c(Cl)c2COc2ccc(C(=O)O)cc2)c1)c1ccc2c(c1)OCO2 [compound 151]", "Result value": "> 6.00"}
{"Compound": "Cc1nn(-c2cccc(C(=O)N(C)c3ccc4oc(C5CC5)nc4c3)c2)c(C)c1Cl [compound 055]", "Result value": "5.70 to 6.00"}
{"Compound": "CCOC(=O)c1nn(-c2cccc(C(=O)N(C)c3ccc4c(c3)OCO4)c2)c(C(C)C)c1Cl [compound 086]", "Result value": "< 5.70"}
{"Compound": "Cc1nn(-c2cccc(C(=O)Nc3ccc4c(c3)OC(F)(F)O4)c2)c(C)c1Cl [Int-006]", "Result value": "< 5.70"}
{"Compound": "Cc1nn(-c2cccc(C(=O)N(C)c3ccc4oc(C(C)C)nc4c3)c2)c(C)c1Cl [compound 062]", "Result value": "< 5.70"}
{"Compound": "Cc1c(Cl)c(C(F)(F)F)nn1-c1cccc(C(=O)N(C)c2ccc3c(c2CO)OCO3)c1 [compound 209]", "Result value": "< 5.70"}
{"Compound": "Cc1nn(-c2cccc(C(=O)N(C)c3ccc4c(c3)OCO4)c2)c(C(C)(C)O)c1Cl [compound 115]", "Result value": "5.70 to 6.00"}
{"Compound": "COCc1c(Cl)c(C)nn1-c1cccc(C(=O)N(C)c2ccc3c(c2)OCO3)c1 [compound 107]", "Result value": "> 6.00"}
{"Compound": "Cc1nc2ccc(N(C)C(=O)c3cccc(-n4nc(C)c(Cl)c4C)c3)cc2o1 [compound 047]", "Result value": "> 6.00"}
{"Compound": "Cc1nc2ccc(N(C)C(=O)c3cccc(-n4nc(C)c(Cl)c4C)c3)cn2n1 [compound 079]", "Result value": "< 5.70"}
{"Compound": "CCOC(=O)c1c(Cl)c(C(C)C)nn1-c1cccc(C(=O)N(C)c2ccc3c(c2)OCO3)c1 [compound 087]", "Result value": "> 6.00"}
{"Compound": "CO[C@H](c1ccccc1)c1c(Cl)c(C)nn1-c1cccc(C(=O)N(C)c2ccc3c(c2)OCO3)c1 (racemic) [compound 117]", "Result value": "> 6.00"}
{"Compound": "CN(C(=O)c1cccc(-n2nc(C(F)(F)F)c(C#N)c2Oc2ccccc2)c1)c1ccc2c(c1)OCO2 [compound 185]", "Result value": "> 6.00"}
{"Compound": "Cc1nn(-c2cccc(C(=O)Nc3ccc4c(c3)CCCC4)c2)c(C)c1Cl [Int-040]", "Result value": "< 5.70"}
{"Compound": "Cc1cc(C(F)(F)F)nn1-c1cccc(S(=O)(=O)N(C)c2ccc3c(c2)OCO3)c1 [compound 204]", "Result value": "5.70 to 6.00"}
{"Compound": "Cc1nc2ccc(N(C)C(=O)c3cccc(-n4nc(C(F)(F)F)c(Cl)c4C4CC4)c3)cc2o1 [compound 137]", "Result value": "> 6.00"}
{"Compound": "CN(C(=O)c1cccc(-n2nc(C(F)(F)F)cc2O[C@H]2CC[C@@H](C(=O)O)CC2)c1)c1ccc2c(c1)OCO2 [compound 216]", "Result value": "> 6.00"}
{"Compound": "CCOC(=O)c1cc(C(F)(F)F)nn1-c1cccc(C(=O)N(C)c2ccc3c(c2)OCO3)c1 [compound 130]", "Result value": "> 6.00"}
{"Compound": "CCOC(=O)c1cccc(OCc2c(Cl)c(C)nn2-c2cccc(C(=O)N(C)c3ccc4c(c3)OCO4)c2)c1 [compound 140]", "Result value": "> 6.00"}
{"Compound": "CN(C(=O)c1cccc(-n2cc(Cl)cn2)c1)c1ccc2c(c1)OCCO2 [compound 033]", "Result value": "< 5.70"}
{"Compound": "Cc1nn(-c2cccc(S(=O)(=O)N(C)c3ccc4c(c3)OC(F)(F)O4)c2)c(C)c1Cl [compound 035]", "Result value": "< 5.70"}
{"Compound": "CN(C(=O)c1cccc(-n2nc(C(F)(F)F)c(Cl)c2COc2ccc(C(=O)OC(C)(C)C)cc2)c1)c1ccc2c(c1)OC(F)(F)O2 [compound 175]", "Result value": "> 6.00"}
{"Compound": "Cc1nn(-c2cccc(C(=O)N(C)c3ccc4c(c3)OCO4)c2)c([C@H](O)c2ccccc2)c1Cl (racemic) [compound 109]", "Result value": "> 6.00"}
{"Compound": "Cc1c(Cl)c(C(F)(F)F)nn1-c1cccc(C(=O)Nc2cc3c(cc2C#N)OCO3)c1 [compound 162]", "Result value": "< 5.70"}
{"Compound": "CN(C(=O)c1cccc(-n2nc(C(F)(F)F)cc2COc2ccc(C(=O)O)cc2)c1)c1ccc2c(c1)OC(F)(F)O2 [compound 218]", "Result value": "> 6.00"}
{"Compound": "CN(C(=O)c1cccc(-n2nc(C(F)(F)F)c(C#N)c2COc2ccc(C(=O)O)cc2)c1)c1ccc2c(c1)OC(F)(F)O2 [compound 224]", "Result value": "> 6.00"}
